tested on: T1, recombinant human VEGF165 (human, UniProt P15692-4 27-191)
T1 construct: also called hVEGF165; rhVEGF165
T1 sequence (P15692 other isoform, or with tags, fused parts or gaps limits assumed): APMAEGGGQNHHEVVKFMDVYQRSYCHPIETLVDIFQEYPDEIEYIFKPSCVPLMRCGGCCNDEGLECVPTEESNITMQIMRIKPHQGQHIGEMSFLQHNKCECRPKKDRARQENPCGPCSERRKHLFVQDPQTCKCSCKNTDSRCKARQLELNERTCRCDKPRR
test name: hVEGF165/hVEGFR2-Fc competition ELISA
quantity name: % inhibition (%)
Numbers only, in %.

Consider the binder VEGFBII023 (VHH, biparatopic bivalent VHH in one chain; also called VEGFBII23B04-40GS-10E07; VEGFBI023) EVQLVESGGGLVQTGDSLRLSCEVSGRTFSSYSMGWFRQAQGKEREFVVAISKGGYKYDSVSLEGRFTISKDNAKNTVYLQINSLKPEDTAVYYCASSRAYGSSRLRLADTYEYWGQGTQVTVSSGGGGSGGGGSGGGGSGGGGSGGGGSGGGGSGGGGSGGGGSEVQLVESGGGLVQAGGSLRLSCAASGRTFSNYAMGWFRQAPGKERVLVADISSSGINTYVADAVKGRFTISRDNAKNTVYLQMNSLKPEDTAVYYCAASAWWYSQMARDNYRYWGQGTQVTVSS and give its measured % inhibition.
100
